# TEST_PROTOCOL: GFP drop in mixed WT/humanized-ribosome E. coli culture – GFP/RFP fluorescence, OD600, single point, bacterial rRNA inhibitor project, primary screen (AID 720706)
# TEST_SETTINGS: E. coli WT GFP vs humanized-ribosome RFP mutants, 24 h; stronger effect = lower value, DMSO median 0, no signal -100
About 5,500 (1.6%) of roughly 350,000 compounds were called active. The list comes from a sample in which actives are over-represented; it also holds close analogues and randomly drawn compounds.
Give measured GFP signal change (wild-type ribosome) for each item. Keep answers brief.
Response body: numeric value in %, unit text excluded.

[ask] Give the measured GFP signal change (wild-type ribosome) for CC(C)NC(=O)Nc1ccc2c(c1)C(=O)N([C@@H](C)CO)C[C@@H](C)[C@H](CN(C)Cc1ccc(Cl)c(Cl)c1)O2
[reply] -11.4

[ask] Give the measured GFP signal change (wild-type ribosome) for C[C@H](CO)N1C[C@H](C)[C@H](CN(C)Cc2ccccc2)OCCCC[C@H](C)Oc2ccc(NC(=O)CCC(F)(F)F)cc2C1=O
[reply] -1.2

[ask] Give the measured GFP signal change (wild-type ribosome) for CCC(=O)N1[C@@H](CO)[C@@H](c2ccccc2)C12CN(C(=O)c1cnccn1)C2
[reply] -1.97

[ask] Give the measured GFP signal change (wild-type ribosome) for Cc1ccc(/C(N)=N/OC(=O)COc2ccc(Cl)c(C)c2)cc1
[reply] 6.91

[ask] Give the measured GFP signal change (wild-type ribosome) for CCOc1ccc(C(C)=O)cc1COC(=O)c1cnc(Cl)c(Cl)c1
[reply] 4.75

Each recorded value in this set is attributed to PubChem BioAssay AID720706.
